Biological target: human TRPA1 ion channel (Homo sapiens)
Sequence (O75762 whole entry): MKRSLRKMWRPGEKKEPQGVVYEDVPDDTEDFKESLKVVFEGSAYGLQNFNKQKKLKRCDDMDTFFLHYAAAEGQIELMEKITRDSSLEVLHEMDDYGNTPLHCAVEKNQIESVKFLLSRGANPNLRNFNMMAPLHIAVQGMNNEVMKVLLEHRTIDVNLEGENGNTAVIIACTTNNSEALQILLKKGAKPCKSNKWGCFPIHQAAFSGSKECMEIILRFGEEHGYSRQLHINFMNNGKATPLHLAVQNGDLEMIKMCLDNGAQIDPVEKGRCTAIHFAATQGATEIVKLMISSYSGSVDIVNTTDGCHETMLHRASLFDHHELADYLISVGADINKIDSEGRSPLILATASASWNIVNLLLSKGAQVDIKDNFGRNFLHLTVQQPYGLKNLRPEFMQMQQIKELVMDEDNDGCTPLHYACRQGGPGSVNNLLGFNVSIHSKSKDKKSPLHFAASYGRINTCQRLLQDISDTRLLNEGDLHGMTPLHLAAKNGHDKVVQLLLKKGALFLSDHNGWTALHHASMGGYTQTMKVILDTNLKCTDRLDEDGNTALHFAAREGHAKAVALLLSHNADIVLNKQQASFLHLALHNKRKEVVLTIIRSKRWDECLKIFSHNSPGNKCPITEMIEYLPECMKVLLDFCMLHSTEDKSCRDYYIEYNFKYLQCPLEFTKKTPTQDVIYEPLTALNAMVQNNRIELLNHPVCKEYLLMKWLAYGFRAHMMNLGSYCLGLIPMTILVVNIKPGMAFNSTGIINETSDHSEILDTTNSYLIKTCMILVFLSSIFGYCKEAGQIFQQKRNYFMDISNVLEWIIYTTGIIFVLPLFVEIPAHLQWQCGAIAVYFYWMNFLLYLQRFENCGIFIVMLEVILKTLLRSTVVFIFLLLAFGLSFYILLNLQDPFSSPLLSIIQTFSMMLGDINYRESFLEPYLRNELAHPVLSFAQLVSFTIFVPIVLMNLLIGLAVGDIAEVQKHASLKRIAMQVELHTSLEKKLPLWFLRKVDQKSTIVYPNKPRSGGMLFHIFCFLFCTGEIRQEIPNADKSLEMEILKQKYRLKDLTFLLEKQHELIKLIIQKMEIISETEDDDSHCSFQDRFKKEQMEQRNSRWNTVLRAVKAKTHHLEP
Test: Assay A: TRPA1 assay (FLIPRtetra, AITC-induced intracellular calcium)
Details: HEK293 cell line over-expressing human TRPA1, AITC agonism (final 10 μM), AUC of calcium signal, read-out: hTRPA1 IC50
Method: A human HEK293 cell line over-expressing the human TRPA1 ion channel (Perkin Elmer, Product No. AX-004-PCL) is used as a test system for compound efficacy and potency. Compound activity is determined by measuring the effect of compounds on intracellular calcium concentration induced by AITC (Allylisothiocyanat) agonism in a FLIPRtetra system (Molecular Devices). The cells are obtained as frozen cells in cryo-vials and stored until use at −150° C. […]
Consider the following compounds and their measured log10 of IC50 readings.
Recorded IC50 (log10, nM)

Example entries and their recorded answers appear below.
>  <chemical.string>
CN1C(=O)COc2ncn(Cc3nnn(C[C@H](O)c4cc5cc(Cl)ccc5o4)n3)c(=O)c21

>  <tested.on>
human TRPA1 ion channel (Homo sapiens)

>  <log10 of IC50>
1.51

$$$$
>  <chemical.string>
CN1C(=O)C(F)(F)Oc2ncn(Cc3nnn(C[C@H](O)c4ccc(Cl)cc4)n3)c(=O)c21

>  <tested.on>
human TRPA1 ion channel (Homo sapiens)

>  <log10 of IC50>
1.87

$$$$
>  <chemical.string>
CN1C(=O)COc2ncn(Cc3nnn(C[C@H](O)c4cc5cc(F)c(Cl)cc5o4)n3)c(=O)c21

>  <tested.on>
human TRPA1 ion channel (Homo sapiens)

>  <log10 of IC50>
2.36

$$$$
>  <chemical.string>
COc1ccc([C@@H](O)Cn2nnc(Cn3cnc4c(c3=O)N(C)C(=O)CO4)n2)cc1

>  <tested.on>
human TRPA1 ion channel (Homo sapiens)

>  <log10 of IC50>
2.39

$$$$
>  <chemical.string>
CN1C(=O)COc2ncn(Cc3nnn(C[C@H](O)c4ccc(Cl)s4)n3)c(=O)c21

>  <tested.on>
human TRPA1 ion channel (Homo sapiens)

>  <log10 of IC50>
1.90

$$$$

### Prompt Value lookup for log10 of IC50; key = CN1C(=O)COc2ncn(Cc3nnn(C[C@H](O)c4cc5ccccc5o4)n3)c(=O)c21
### Response 2.06

---

Consider the following compounds and their measured human LM [% Qh] readings.
Assay: Assay B: Microsomal clearance
Type: in vitro ADME, human
Settings: pooled liver microsomes 1 mg/ml, test compound 1 μM, 37° C., NADPH; clearance as % of hepatic blood flow

Example entries and their recorded answers appear below.
>  <chemical.string>
CN1C(=O)COc2ncn(Cc3nnn(C[C@H](O)c4cc5cc(F)c(F)cc5o4)n3)c(=O)c21

>  <human LM [% Qh]>
<23 % Qh

$$$$
>  <chemical.string>
C[C@H]1Oc2ncn(Cc3nnn(C[C@H](O)c4ccc(Cl)cc4)n3)c(=O)c2N(C)C1=O

>  <human LM [% Qh]>
25 % Qh

$$$$
>  <chemical.string>
CN1C(=O)COc2ncn(Cc3nnn(C[C@H](O)c4ccc(Cl)cc4)n3)c(=O)c21

>  <human LM [% Qh]>
<23 % Qh

$$$$

Kindly consider the entry below.
### Prompt Value lookup for human LM [% Qh]; key = CN1C(=O)COc2ncn(Cc3nnn(C[C@H](O)c4cc5ccc(F)cc5s4)n3)c(=O)c21
### Response <23 % Qh

Recorded values, source patent US11891403B2.
